Source: PubChem BioAssay (NCI)

// values below are reported growth
Test system: HT29 colon
Experiment: NCI-60 one-dose screen, 48 h (100 = growth as untreated, 0 = no growth, -100 = all killed)
Settings: 10 µM
About 83,000 compounds went through this panel and 20% of them were active in at least one assay; those are over-represented in the sample as a whole. Active and inactive are the calls of the source. The calls were made as follows: active = growth percent below 10; inactive = the rest.
Property label: growth

> print(dat)
                                    molecule  observed.measurement
 1         CCOC(=O)C(=Cc1ccc(Br)cc1)C(=O)OCC         -64% (active)
 2     CN(Cc1ccccc1)Cc1ccc([N+](=O)[O-])cc1I      93.8% (inactive)
 3  O=C(N/N=C/c1ccccc1)C(Oc1ccccc1)c1ccccc1 (stereo not given)       100% (inactive)
 4  CCN(CC)CCSCCCNc1c2ccc(Cl)cc2nc2ccc(OC)cc12       -58.1% (active)
 5  COc1cc2cc3c(nc2cc1OC)CCN3Cc1ccc(NC(=O)c2ccc(Cl)c(C(F)(F)F)c2)cc1       105% (inactive)
 6  CN(C)CC(O)c1ccc2cc(Br)c3ccccc3c2c1 (stereo not given)        22% (inactive)
 7  COc1ccc(NC(=O)Cc2nc3nc4sc(C)c(C)c4c(=O)n3[nH]2)cc1      94.1% (inactive)
 8  COc1ccc(C2=NN(C(=O)c3ccc(S(C)(=O)=O)cc3)C(c3ccc(OC)c(OC)c3)C2)c(OC)c1 (stereo not given)       103% (inactive)
 9  O=C1/C(=C\c2ccc(Cl)cc2)CN(C(=S)Nc2ccccc2)C/C1=C\c1ccc(Cl)cc1         -77% (active)
10  FC(F)(F)c1ccc(-c2cnc(Cl)nc2N2CCC3(CC2)OCCO3)cc1      96.9% (inactive)
11  CC1(C)N=C(N)N=C(N)N1c1ccc(CCc2ccccc2)c(Cl)c1        1.41% (active)
12  CCCCCCc1cc(N=Nc2ccc(S(=O)(=O)Nc3cc(C)nc(C)n3)cc2)c(O)cc1O      95.6% (inactive)
13  O=C(O)CC(Cl)C(Cl)CC(=O)O (stereo not given)       101% (inactive)
14  Oc1[nH]c2ccc(Cl)cc2c1/C=c1/ccc2c(c1)N=C(c1cc(F)cc(F)c1)N=2      22.7% (inactive)
15  COc1cc(-c2cc(/C=C3\C(=O)Nc4ccccc43)[nH]n2)cc(OC)c1OC      55.7% (inactive)
16          CCCCC/C=C/C(=O)CCc1ccc(O)c(OC)c1      93.1% (inactive)
17                    N=c1nc(N)ncn1-c1ccccc1      96.4% (inactive)
18  N=c1c2c(-c3ccccc3)c(-c3ccccc3)n(Cc3ccccc3)c2ncn1CCCO       0.266% (active)
19        O=C(O)CN1C(=O)c2cccc3cccc(c23)C1=O       100% (inactive)
20          COc1ccc(/C=C/C(C)=N/OCC(=O)O)cc1       105% (inactive)
21  O=S(=O)(NCCCNc1nccc(-c2c(-c3ccc(F)cc3)nc3sccn23)n1)c1ccc(F)cc1        3.28% (active)
22  O=C(N/N=C\c1cc(Cl)ccc1[N+](=O)[O-])c1ccco1       107% (inactive)
23  COC(=O)c1c(-c2ccccc2)csc1NC(=O)c1c(-c2ccccc2)noc1C        7.12% (active)
24  COc1cc(/C=C/C(=O)c2ccc(Cl)cc2)ccc1OS(=O)(=O)c1ccc(C)cc1      28.5% (inactive)
25         NC1=NC(=O)C(c2ccccc2)(c2ccccc2)S1       106% (inactive)
26  COc1ccc(-c2cc(/C=C3\C(=O)Nc4ccc(Cl)cc43)[nH]n2)cc1OC      93.5% (inactive)
27           O=C1N=NC2=C1c1c3ccccc3c(O)n1CC2       103% (inactive)
28  COc1ccc2c(c1)C(=O)c1c-2c(OCCN2CCCCC2)nc2ccc(OC)cc12        1.76% (active)
29  O=C1/C(=C/c2ccc([N+](=O)[O-])o2)Oc2ccccc21       -15.3% (active)
30       CC1CC(=O)OC(C)C1 (stereo not given)       112% (inactive)
